Source of measurements: patent US20240116926A1

test: Solubility (thermodynamic, shake-flask); format: physicochemical; conditions: thermodynamic from solid; aqueous phosphate buffer (pH 7.4), 24 hours at 25° C.
REPORTED_ENDPOINT: solubility at 24 h (µM)

These recorded examples may help you get a feel for the data.
COMPOUND | UNIT_INFO | solubility at 24 h
C=CC(=O)N1C[C@H](O)[C@H](Nc2nnc(-c3ccc(C(F)(F)F)cc3)c3ccccc23)C1 [Example 12] | µM | 370
C=CC(=O)N1C[C@@H](CO)[C@H](Nc2nnc(-c3ccc(C(F)(F)F)cc3)c3cccc(F)c23)C1 [Example 15] | µM | 135
C=CC(=O)N1C[C@H](CO)[C@@H](Nc2nnc(-c3ccc(C(F)(F)F)cc3)c3ccccc23)C1 [Example 22] | µM | 65
C#CC(=O)N1CC[C@H](Nc2nnc(-c3ccc(C(F)(F)F)cc3)c3ccccc23)C1 [Example 19] | µM | 38
C=CC(=O)N1C[C@H](O)[C@H](Nc2nnc(-c3ccc(C(F)(F)F)cc3)c3ncccc23)C1 [Example 32] | µM | 52

1: C=CC(=O)N1CC[C@H](Nc2nnc(-c3ccc(C(F)(F)F)cn3)c3ccccc23)C1 [Example 18]
2: C=CC(=O)N1C[C@@H](CO)[C@H](Nc2nnc(-c3ccc(C(F)(F)F)cc3)c3ncccc23)C1 [Example 25]
Data request: Select the item with the higher value of solubility at 24 h from the options 1 and 2 listed. The response must carry the label of the picked entry.
Data returned: 1
